Where do these numbers come from? They come from patent US20110262445A1.

Catalogue of koff readings, one per entry.
# TESTED SYSTEM: T1, human IL-12 (human, UniProt P29460 23-328; P29459 23-219)
# T1 construct: Recombinant (Peprotech); FLAG-tagged IL-12 in the flow cytometry assays, biotinylated in the IL-12Rβ2 assay; also called hIL-12
# T1 sequence 1: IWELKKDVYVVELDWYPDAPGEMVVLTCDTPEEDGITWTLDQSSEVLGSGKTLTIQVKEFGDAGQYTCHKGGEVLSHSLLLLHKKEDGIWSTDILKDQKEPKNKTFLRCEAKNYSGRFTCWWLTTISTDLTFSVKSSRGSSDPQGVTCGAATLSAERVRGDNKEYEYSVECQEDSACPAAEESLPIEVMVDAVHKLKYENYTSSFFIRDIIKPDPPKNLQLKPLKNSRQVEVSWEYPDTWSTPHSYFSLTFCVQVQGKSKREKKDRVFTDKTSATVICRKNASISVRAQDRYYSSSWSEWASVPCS
# T1 sequence 2: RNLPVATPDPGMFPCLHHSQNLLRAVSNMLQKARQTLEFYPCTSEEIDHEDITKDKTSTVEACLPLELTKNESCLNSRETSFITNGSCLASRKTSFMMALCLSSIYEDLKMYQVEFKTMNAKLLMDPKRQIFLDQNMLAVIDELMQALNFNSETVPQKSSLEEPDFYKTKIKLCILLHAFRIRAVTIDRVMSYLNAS
# ASSAY METHOD TEXT: SPR, purified scFv captured via FLAG
Entry rule: numbers only, all in s⁻¹.

Some solved entries appear below for comparison.
BINDER	koff, s⁻¹
scFv AW-F2 (scFv, scFv-80 variant: VH Y59S; not shown: proprietary C-terminal FLAG tag) scFv: QVQLVQSGAEVKKPGASVKVSCKASGYTFTDYYLHWVRQAPGQGLEWMGWIDPENGDTESAPKFQGRVTMTTDTSTSTAYMELRSLRSDDTAVYYCNANKELRYFDVWGQGTMVTVSSGGGGSGGGGSGGGGSEIVMTQSPATLSVSPGERATLSCRASQSISINLHWYQQKPGQAPRLLIYFASQSISGIPARFSGSGSGTEFTLTISSLQSEDFAVYYCQQSNSFPLTFGGGTKVEIKR	0.0001
scFv BU-B1 (scFv, scFv-80 variant: VH L34M; not shown: proprietary C-terminal FLAG tag) scFv: QVQLVQSGAEVKKPGASVKVSCKASGYTFTDYYMHWVRQAPGQGLEWMGWIDPENGDTEYAPKFQGRVTMTTDTSTSTAYMELRSLRSDDTAVYYCNANKELRYFDVWGQGTMVTVSSGGGGSGGGGSGGGGSEIVMTQSPATLSVSPGERATLSCRASQSISINLHWYQQKPGQAPRLLIYFASQSISGIPARFSGSGSGTEFTLTISSLQSEDFAVYYCQQSNSFPLTFGGGTKVEIKR	0.00024
scFv CU-A6 (scFv, scFv-80 variant: VH F29L, T107A; VL S63F; not shown: proprietary C-terminal FLAG tag) scFv: QVQLVQSGAEVKKPGASVKVSCKASGYTLTDYYLHWVRQAPGQGLEWMGWIDPENGDTEYAPKFQGRVTMTTDTSTSTAYMELRSLRSDDTAVYYCNANKELRYFDVWGQGAMVTVSSGGGGSGGGGSGGGGSEIVMTQSPATLSVSPGERATLSCRASQSISINLHWYQQKPGQAPRLLIYFASQSISGIPARFFGSGSGTEFTLTISSLQSEDFAVYYCQQSNSFPLTFGGGTKVEIKR	9.7e-05
scFv CR-B1 (scFv, scFv-80 variant: VH D85E; not shown: proprietary C-terminal FLAG tag) scFv: QVQLVQSGAEVKKPGASVKVSCKASGYTFTDYYLHWVRQAPGQGLEWMGWIDPENGDTEYAPKFQGRVTMTTDTSTSTAYMELRSLRSEDTAVYYCNANKELRYFDVWGQGTMVTVSSGGGGSGGGGSGGGGSEIVMTQSPATLSVSPGERATLSCRASQSISINLHWYQQKPGQAPRLLIYFASQSISGIPARFSGSGSGTEFTLTISSLQSEDFAVYYCQQSNSFPLTFGGGTKVEIKR	0.00044

I have this binder here, scFv AQ-G10 (scFv, scFv-80 variant: VH K12E, R66G; not shown: proprietary C-terminal FLAG tag) scFv: QVQLVQSGAEVEKPGASVKVSCKASGYTFTDYYLHWVRQAPGQGLEWMGWIDPENGDTEYAPKFQGGVTMTTDTSTSTAYMELRSLRSDDTAVYYCNANKELRYFDVWGQGTMVTVSSGGGGSGGGGSGGGGSEIVMTQSPATLSVSPGERATLSCRASQSISINLHWYQQKPGQAPRLLIYFASQSISGIPARFSGSGSGTEFTLTISSLQSEDFAVYYCQQSNSFPLTFGGGTKVEIKR , and I need its recorded koff.
0.00052
